System: ticks
Experiment: Shell-vial bioassay of morbidity and mortality of ticks
Type: in vivo
Details: 0.25%, 24 hr
Measurement Name: # Alive/10

1. CC(C)[C@@H]1CCC2CC(=O)C[C@@H](C)[C@]2(C)C1 (stereo partly shown) [Tetrahydronootkatone, tetrahydronootkatone] = 1
2. C=C(C)[C@@H]1CCC2=CC(=O)C[C@@H](C)[C@]2(C)C1 = 0
3. CC(C)C1CCC2=CC(=O)CC(C)C2(C)C1 (stereo not shown) [11,12 dihydronootkatone, 11,12-dihydronootkatone] = 0

Please find the next molecule below.
Endpoint output: # Alive/10 of C=C(C)[C@@H]1CCC2CC(=O)C[C@@H](C)[C@]2(C)C1 (stereo partly shown) [1,10 dihydronootkatone, 1,10-dihydronootkatone] . Value?
1
